target: TACE (Homo sapiens, UniProt P78536); construct: made in house; host or cells: mammalian cells or insect cells; test: TACE inhibition experiment (in vitro); format: biochemical
Sequence (P78536 215-824): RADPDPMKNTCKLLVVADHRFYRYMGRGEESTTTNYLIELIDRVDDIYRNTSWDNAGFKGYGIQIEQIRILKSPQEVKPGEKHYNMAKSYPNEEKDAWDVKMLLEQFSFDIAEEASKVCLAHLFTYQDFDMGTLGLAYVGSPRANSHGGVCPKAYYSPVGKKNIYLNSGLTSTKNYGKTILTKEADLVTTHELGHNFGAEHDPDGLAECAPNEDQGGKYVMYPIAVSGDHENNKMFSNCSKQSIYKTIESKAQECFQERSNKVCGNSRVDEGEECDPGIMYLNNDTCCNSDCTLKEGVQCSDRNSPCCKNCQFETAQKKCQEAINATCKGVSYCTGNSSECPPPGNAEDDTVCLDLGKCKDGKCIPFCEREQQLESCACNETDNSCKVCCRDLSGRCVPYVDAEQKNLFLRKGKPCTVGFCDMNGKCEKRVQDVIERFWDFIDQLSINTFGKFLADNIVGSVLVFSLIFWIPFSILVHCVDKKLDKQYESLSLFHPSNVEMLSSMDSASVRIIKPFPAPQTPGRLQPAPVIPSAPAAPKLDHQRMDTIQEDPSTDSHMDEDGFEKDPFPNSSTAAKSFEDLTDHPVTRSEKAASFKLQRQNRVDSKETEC
pIC50: −log10 of the molar value.
reported metric: pIC50

Worked cases, pIC50 given:
Cc1cccc(CCC(CS(=O)(=O)c2ccc(OCc3cc(C)nc4ccccc34)cc2)N(O)C=O)n1 (stereo not shown) :: 7.92
C=C1CCC(C(CS(=O)(=O)c2ccc(OCc3cc(C)cc(C)c3)cc2)N(O)C=O)CC1 (stereo not shown) :: 6.37

(A) Cc1cc(COc2ccc(S(=O)(=O)CC(C=C3CCC(=O)CC3)N(O)C=O)cc2)cc(C)n1 (stereo not shown)
(B) Cc1cccc(CCC(CS(=O)(=O)c2ccc(OCc3cc(C)nc4ccccc34)cc2)N(O)C=O)c1 (stereo not shown)
(C) Cc1cc(COc2ccc(S(=O)(=O)CC(C=C3CCN(C(=O)OC(C)(C)C)CC3)N(O)C=O)cc2)c2ccccc2n1 (stereo not shown)
(D) Cc1cc(COc2ccc(S(=O)(=O)CC(c3ccccc3C)N(O)C=O)cc2)c2cc(F)ccc2n1 (stereo not shown)
(E) Cc1cc(COc2ccc(S(=O)(=O)CC(N(O)C=O)C3(C)CCC(O)CC3)cc2)c2ccccc2n1 (stereo not shown)
Ask: Arrange the 5 compounds by rising pIC50, starting with the smallest. Provide the ranking by listing each label in its place in the requested order.
Result: B, A, E, D, C

====

biological target: Human MMP13 (Homo sapiens); construct: purchased Chemicon CC068; experiment: MMP13 inhibition experiment; assay type: biochemical; conditions: concentration required for 50% inhibition of enzyme activity; read-out: IC50 value MMP-13
reported metric: IC50 (µM)

Cc1cc(COc2ccc(S(=O)(=O)CC(C=C3CCN(Cc4ccccc4)CC3)N(O)C=O)cc2)c2ccccc2n1 (stereo not shown) [Example I-45] :: 2
Cc1cc(COc2ccc(S(=O)(=O)CC(N(O)C=O)C3(C)CCOCC3)cc2)c2ccccc2n1 (stereo not shown) [Example I-60] :: 56
Cc1ccc(C(CS(=O)(=O)c2ccc(OCc3cc(C)nc4ccccc34)cc2)N(O)C=O)cn1 (stereo not shown) [Example I-32] :: 9
Cc1cc(COc2ccc(S(=O)(=O)CC(C3CCC4(CC3)OCCO4)N(O)C=O)cc2)c2ccccc2n1 (stereo not shown) [Example I-28] :: 3.3

(1) COc1ccc(CN2C(=O)SCC2C(CS(=O)(=O)c2ccc(OCc3cc(C)nc4ccccc34)cc2)N(O)C=O)cc1 (stereo not shown) [Example I-59]
(2) COCOC1CCC(C)(C(CS(=O)(=O)c2ccc(OCc3cc(C)nc4ccccc34)cc2)N(O)C=O)CC1 (stereo not shown) [Example I-128]
Ask: Of 1 and 2 , whose reported IC50 is numerically smaller? In your reply, give the label of the chosen option.
Result: 2
(2: 22 µM, 1: 35 µM)

====

Data export: IC50 values recorded with Human MMP14 (Homo sapiens).
reported metric: IC50 (µM)

Cc1ccc(CCCC(CS(=O)(=O)c2ccc(OCc3cc(C)nc4ccccc34)cc2)N(O)C=O)cc1 (stereo not shown) [Example I-37] :: 33

(1) COc1ccc(CCC(CS(=O)(=O)c2ccc(OCc3cc(C)nc4ccccc34)cc2)N(O)C=O)cc1 (stereo not shown) [Example I-35]
(2) Cc1cc(COc2ccc(S(=O)(=O)CC(C=C3CCN(C(=O)C(C)(C)C)CC3)N(O)C=O)cc2)c2ccccc2n1 (stereo not shown) [Example I-25]
Ask: Determine, for 1 and 2 , which has the greater value of IC50. // return label of chosen record
Result: 1

====

pIC50: −log10 of the molar value.
In what follows, each item is paired with its pIC50 for UniProtKB P08253.
Sequence (P08253 110-660): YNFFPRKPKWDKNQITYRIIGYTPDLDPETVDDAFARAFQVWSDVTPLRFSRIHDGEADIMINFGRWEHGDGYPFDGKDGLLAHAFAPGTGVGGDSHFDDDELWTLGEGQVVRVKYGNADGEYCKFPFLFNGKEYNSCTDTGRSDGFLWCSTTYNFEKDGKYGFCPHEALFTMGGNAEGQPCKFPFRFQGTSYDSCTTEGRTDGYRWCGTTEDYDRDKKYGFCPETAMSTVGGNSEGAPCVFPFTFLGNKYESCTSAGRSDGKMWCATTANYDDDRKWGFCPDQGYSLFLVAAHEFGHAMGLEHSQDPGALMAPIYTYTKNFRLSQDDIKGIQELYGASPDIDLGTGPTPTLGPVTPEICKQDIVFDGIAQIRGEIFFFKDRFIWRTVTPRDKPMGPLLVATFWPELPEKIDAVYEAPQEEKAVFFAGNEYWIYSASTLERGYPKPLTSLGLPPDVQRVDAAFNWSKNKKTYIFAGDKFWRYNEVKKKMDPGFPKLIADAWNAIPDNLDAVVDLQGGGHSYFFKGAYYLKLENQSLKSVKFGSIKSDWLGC
reported metric: pIC50

Cc1cc(COc2ccc(S(=O)(=O)CC(c3cccnc3C)N(O)C=O)cc2)c2ccccc2n1 (stereo not drawn) [Example I-67] :: 4.70
Cc1cc(COc2ccc(S(=O)(=O)CC(CC3CCC(=O)CC3)N(O)C=O)cc2)cc(C)n1 (stereo not drawn) [Example I-113] :: 5.70
COc1cc(C)cc(COc2ccc(S(=O)(=O)CC(C=C3CCC(=O)CC3)N(O)C=O)cc2)c1 (stereo not drawn) [Example I-94] :: 4.64

(a) CCC(CC)C(=O)N1CCC(C(CS(=O)(=O)c2ccc(OCc3cc(C)nc4ccccc34)cc2)N(O)C=O)CC1 (stereo not drawn) [Example I-132]
(b) Cc1cc(COc2ccc(S(=O)(=O)CC(C3CCC4(CC3)OCCO4)N(O)C=O)cc2)c2ccccc2n1 (stereo not drawn) [Example I-28]
(c) CCC(CC)C(=O)N1CCC(=CC(CS(=O)(=O)c2ccc(OCc3cc(C)nc4ccccc34)cc2)N(O)C=O)C(C)C1 (stereo not drawn) [Example I-63]
(d) CCN1CCC(=CC(CS(=O)(=O)c2ccc(OCc3cc(C)nc4ccccc34)cc2)N(O)C=O)CC1 (stereo not drawn) [Example I-30]
Ask: Endpoint returns the given molecules ordered by ascending pIC50. List the labels, following the order given in the request.
Result: d, c, b, a
(d: 4.08, c: 4.52, b: 5.15, a: 5.66)

(P) Cc1cc(COc2ccc(S(=O)(=O)CC(C=C3CCN(C(=O)OC(C)(C)C)CC3)N(O)C=O)cc2)c2ccccc2n1 (stereo not drawn) [Example I-18]
(Q) COc1cc(C)cc(COc2ccc(S(=O)(=O)CC(CC3CCC4(CC3)OCCO4)N(O)C=O)cc2)c1 (stereo not drawn) [Example I-93]
(R) Cc1cc(COc2ccc(S(=O)(=O)CC(N(O)C=O)C3(C)CCC4(CC3)OCCO4)cc2)c2ccccc2n1 (stereo not drawn) [Example I-47]
Ask: Sort the molecules on pIC50; start with the lowest figure. Reply format: the labels, ordered as requested.
Result: R, Q, P
(R: 4.66, Q: 5.00, P: 5.48)

(a) CCC(CC)C(=O)N1CCCC(C(CS(=O)(=O)c2ccc(OCc3cc(C)nc4ccccc34)cc2)N(O)C=O)C1 (stereo not drawn) [Example I-130]
(b) COCc1cc(COc2ccc(S(=O)(=O)CC(C=C3CCC(=NO)CC3)N(O)C=O)cc2)cc(C)n1 (stereo not drawn) [Example I-120]
Ask: Quick one: lower pIC50, a or b ? Refer to your chosen entry by its label in the reply.
Result: b
(b: 4.66, a: 5.59)

====

target: TACE (Homo sapiens, UniProt P78536); construct: made in house; host or cells: mammalian cells or insect cells; experiment: TACE inhibition experiment (in vitro); assay type: biochemical
pIC50: −log10 of the molar value.
reported metric: pIC50

Cc1cc(COc2ccc(S(=O)(=O)CC(C3CCCN(C(=O)OC(C)(C)C)C3)N(O)C=O)cc2)c2ccccc2n1 (stereo not shown) [Example I-72] :: 7.62
CC(=O)N1CCC(CC(CS(=O)(=O)c2ccc(OCc3cc(C)nc4ccccc34)cc2)N(O)C=O)CC1 (stereo not shown) [Example I-69] :: 8.28

(P) Cc1cc(COc2ccc(S(=O)(=O)CC(/C=C/C3(C)CCOCC3)N(O)C=O)cc2)c2ccccc2n1 (stereo not shown) [Example I-143]
(Q) COc1cc(C)cc(COc2ccc(S(=O)(=O)CC(CC3CCC4(CC3)OCCO4)N(O)C=O)cc2)c1 (stereo not shown) [Example I-93]
Ask: Which is greater in pIC50, the first item P or the second item Q ? # respond with the chosen item's label
Result: P
(P: 8.48, Q: 6.52)

====

target: TACE (Homo sapiens); construct: made in house; host or cells: mammalian cells or insect cells; experiment: TACE inhibition experiment (in vitro); format: biochemical
pIC50: −log10 of the molar value.
reported metric: pIC50

Cc1cc(COc2ccc(S(=O)(=O)CC(CC3=CCN(C(=O)OC(C)(C)C)CC3(C)C)N(O)C=O)cc2)c2ccccc2n1 (stereo not shown) :: 7.89
Cc1cncc(C(CS(=O)(=O)c2ccc(OCc3cc(C)nc4ccc(C)cc34)cc2)N(O)C=O)c1 (stereo not shown) :: 8.51

(a) CC(=O)N1CCC(C(CS(=O)(=O)c2ccc(OCc3cc(C)nc4ccccc34)cc2)N(O)C=O)CC1 (stereo not shown)
(b) Cc1cc(COc2ccc(S(=O)(=O)CC(C(Cl)=C3CCOCC3)N(O)C=O)cc2)c2ccccc2n1 (stereo not shown)
Ask: Response body: label of entry with the larger pIC50; valid values a , b . To answer, give the label that identifies your chosen option.
Result: b
(b: 8.20, a: 7.85)

====

Target: Human MMP1 (Homo sapiens, UniProt P03956)
Construct: purchased Calbiochem 444208
Sequence (P03956 100-469): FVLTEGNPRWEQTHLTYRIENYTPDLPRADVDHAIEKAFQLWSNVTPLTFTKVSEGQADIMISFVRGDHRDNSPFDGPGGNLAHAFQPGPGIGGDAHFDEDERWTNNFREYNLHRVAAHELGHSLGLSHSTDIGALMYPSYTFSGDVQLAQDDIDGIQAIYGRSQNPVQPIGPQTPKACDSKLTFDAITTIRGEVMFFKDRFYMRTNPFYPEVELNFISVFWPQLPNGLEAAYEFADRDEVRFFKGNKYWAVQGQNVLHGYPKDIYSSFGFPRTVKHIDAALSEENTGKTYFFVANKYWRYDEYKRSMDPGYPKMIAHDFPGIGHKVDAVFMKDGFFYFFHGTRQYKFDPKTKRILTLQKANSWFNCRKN
Experiment: MMP1 inhibition experiment
Format: biochemical
Details: read-out: IC50 value MMP-1
pIC50: −log10 of the molar value.
reported metric: pIC50

Please review the entries below; each comes with its answer.
Cc1ccc(C(C)(CS(=O)(=O)c2ccc(OCc3cc(C)nc4ccccc34)cc2)N(O)C=O)cc1 (stereo not drawn) :: 4.38
Cc1cccc(C(CS(=O)(=O)c2ccc(OCc3cc(C)nc4ccccc34)cc2)N(O)C=O)c1 (stereo not drawn) :: 4.22
Cc1cc(COc2ccc(S(=O)(=O)CC(C=C3CCN(Cc4ccccc4)CC3)N(O)C=O)cc2)c2ccccc2n1 (stereo not drawn) :: 4.07
Cc1cc(COc2ccc(S(=O)(=O)CC(CC3CCC4(CC3)OCCO4)N(O)C=O)cc2)c2ccccc2n1 (stereo not drawn) :: 4.35
Cc1cc(COc2ccc(S(=O)(=O)CC(C3CCC(=O)CC3)N(O)C=O)cc2)c2ccccc2n1 (stereo not drawn) :: 4.35
Cc1cc(COc2ccc(S(=O)(=O)CC(C=C3CCN(C(=O)C(C)(C)C)CC3)N(O)C=O)cc2)c2ccccc2n1 (stereo not drawn) :: 4.40
CCC(CC)C(=O)N1CCC(CC(CS(=O)(=O)c2ccc(OCc3cc(C)nc4ccccc34)cc2)N(O)C=O)C(C)C1 (stereo not drawn) :: 4.24
Cc1cc(COc2ccc(S(=O)(=O)CC(C=C3CCC(=NO)CC3)N(O)C=O)cc2)c2ccccc2n1 (stereo not drawn) :: 4.10

(a) Cc1ccc2nc(C)cc(COc3ccc(S(=O)(=O)CC(c4ccccc4C)N(O)C=O)cc3)c2c1 (stereo not drawn)
(b) Cc1cc(Cl)cc(COc2ccc(S(=O)(=O)CC(CC3CCC(=O)CC3)N(O)C=O)cc2)c1 (stereo not drawn)
Ask: Hi team, can someone confirm which has the larger pIC50: a or b ? Thanks. Use the label to indicate which entry you chose.
Result: b
(b: 4.40, a: 4.13)
